Test system: KM12 colon
test: NCI-60 one-dose screen, 48 h (100 = growth as untreated, 0 = no growth, -100 = all killed)
assay.context: 10 µM unless noted
About 83,000 compounds went through this panel and 20% of them were active in at least one assay; those are over-represented in the sample as a whole.
Rule: measured growth below 70% gets satisfied; anything equal to or greater than 70% gets not satisfied.

Decide: growth of CCCCCCCCCCCCCCCCCC1=NCCN1CCNC(C)=O strictly below 70%? not satisfied

Decide: growth of CC(C)(C)c1cc(C[P+](c2ccc(Cl)cc2)(c2ccc(Cl)cc2)c2ccc(Cl)cc2)cc(C(C)(C)C)c1O strictly below 70%? not satisfied

Decide: growth of COC(=O)C1CC(=O)N(C(=O)Nc2ccc(Cl)cc2Cl)C1 (stereo not given) strictly below 70%? not satisfied

Decide: growth of C[n+]1c2ccccc2c(Nc2ccc(NS(=O)(=O)CCCCN=C(N)N)cc2)c2ccc(N)cc21 strictly below 70%? satisfied

Decide: growth of Oc1ccc(N=Nc2ccc(N=Nc3ccccc3)cc2)cc1 strictly below 70%? satisfied

Decide: growth of COc1cc(-c2nn(-c3ccc(NC(=O)Nc4cc(C(F)(F)F)cc(C(F)(F)F)c4)cc3)cc2-c2ccncc2)ccc1Cl strictly below 70%? satisfied

Decide: growth of CSC1=Nc2c(c(C)c(-c3ccccc3)n2CCCCl)C2=NC(=O)CN12 strictly below 70%? satisfied

Decide: growth of CC(C)OC(=O)Nn1cnc2ccccc21 strictly below 70%? not satisfied

Decide: growth of CCCCCCCCCCCCOC(=O)/C=C\C(=O)NC(N)=O strictly below 70%? not satisfied

Decide: growth of O=C(N/N=C/c1ccccc1Cl)c1cccc2ccccc12 strictly below 70%? not satisfied

Decide: growth of CC(=O)OC1CC2C3CCC4C[C@@H](NC(=O)C=C(C)C)CC[C@]4(C)C3CC[C@]2(C)[C@H]1C(C)N(C)C (stereo not given in full) strictly below 70%? satisfied

Decide: growth of Cc1nc(NC(=S)Nc2ccc(F)cc2)sc1C(=O)NNC(=S)Nc1ccc(F)cc1 strictly below 70%? not satisfied

Decide: growth of COc1cc(-c2nn(-c3ccc(NC(=O)Nc4ccc(Cl)c(Cl)c4)cc3)cc2-c2ccncc2)ccc1Cl strictly below 70%? satisfied

Decide: growth of O=C(NCCCl)Nc1nccnc1OCc1ccc(F)cc1 strictly below 70%? not satisfied

Decide: growth of O=C(Nc1cccc(Cn2c(=O)[nH]c3ccc(Oc4ncccn4)cc3c2=O)c1)c1cccc(F)c1 strictly below 70%? satisfied

Decide: growth of COc1ccccc1C(=O)Nc1cccc(-c2cc(=O)c3c(OC)c(OC)c(OC)cc3o2)c1 strictly below 70%? satisfied

Decide: growth of CC(=O)N1N=C(c2ccc(Cl)cc2)CC1c1cn(-c2ccccc2)nc1-c1ccc([N+](=O)[O-])cc1 (stereo not given) strictly below 70%? not satisfied

Decide: growth of COc1cccc2c1nc1cccc(OC)c1[n+]2[O-] strictly below 70%? satisfied

Decide: growth of CC[C@H](Nc1ncnc2nc[nH]c12)c1nc2cccc(NCc3ccc(C(=O)NO)o3)c2c(=O)n1-c1ccccc1 strictly below 70%? not satisfied

Decide: growth of COc1cc2c(c3c1c(=O)c1cccc(F)c1n3C)C=CC(C)(C)O2 strictly below 70%? not satisfied
